Assay: CPHEA_Stoker_NIS_Cytotoxicity: Cytotoxicity Assessment for CPHEA's Radioactive Iodide Uptake (RAIU) Assay for Sodium/Iodide Symporter (NIS) Inhibition, Stoker and Laws Labs (AID 2283897)
Activity calls are given as the source filed them. How the source made its calls: active means hit-call score of the fitted dose curve at least 0.9, where 1 is the maximum; inconclusive means response in the unintended direction; inactive means score below 0.9.
Readout name: outcome

| Compound | Observed |
| --- | --- |
| CCOC(=O)COc1ccc2c(c1)CC(NCC(O)c1cccc(Cl)c1)CC2 (stereo not drawn) | inactive |
| COc1cccc(-c2ccc(/C=C\CN3CCCCCC3)cc2Cl)c1 | inactive |
| CN(C)c1ccc(Cc2ccc(N(C)C)cc2)cc1 | inactive |

* * *

Experiment: ATG_M_19_CIS: Attagene CIS-FACTORIAL HepG2 Assay for M19 Transcription Factor (Internal Marker) (AID 2282939)
Conditions: HepG2 Attagene CIS-FACTORIAL M19 internal marker reporter; actives raise or lower the signal
Active and inactive are the calls of the source. How the source made its calls: active means hit-call score of the fitted dose curve at least 0.9, where 1 is the maximum; inactive means score below 0.9.
Returns: one label drawn from y (active), n (inactive)

query: Would you mind telling me which call this test gave O=c1[nH]c2ccc(S(=O)CCN3CCC(Cc4ccc(F)cc4)CC3)cc2o1 (stereo not given) ?
result: n

query: Could you do the same for "NC(=O)NO" , please?
result: n

query: Could you do the same for "CC(C)c1cccc(C(C)C)c1N1C(=O)c2ccc(O)cc2C1=O" , please?
result: y

query: Could you do the same for "COc1ccc2sc(C(=O)Nc3nnn[nH]3)c(OC(C)C)c2c1" , please?
result: n

query: Could you do the same for COc1ccc(-n2nc(C(F)F)cc2-c2ccc(S(C)=O)cc2)cc1 (stereo not given) , please?
result: n

query: Could you do the same for "CCn1nc(Cc2ccccc2)cc1C1CCN(C[C@H]2C[C@H](N(C)[C@@H](C(=O)O)C(C)C)C[C@@H]2c2cccc(F)c2)CC1" , please?
result: n

query: Could you do the same for "CC[C@H](C)C(=O)O[C@H]1C[C@@H](C)C=C2C=C[C@H](C)[C@H](CC[C@@H]3C[C@@H](O)CC(=O)O3)[C@H]21" , please?
result: n

query: Could you do the same for "CC[C@H]1OC(=O)[C@H](C)[C@@H](O[C@H]2C[C@@](C)(OC)[C@@H](O)[C@H](C)O2)[C@H](C)[C@@H](O[C@@H]2O[C@H](C)C[C@H](N(C)C)[C@H]2O)[C@](C)(O)C[C@@H](C)C(=O)[C@H](C)[C@@H](O)[C@]1(C)O" , please?
result: n

query: Could you do the same for "CC(C)=CCC/C(C)=C\CO" , please?
result: n

query: Could you do the same for "CC(C)CCO" , please?
result: n

Reference source: PubChem BioAssay (EPA / NIEHS)
